Tested on: BT-474
experiment: normalised response (% of control), CellTiter-Glo; higher = more viable cells (100 = DMSO, 0 = benzethonium chloride kill control)
setup conditions: incubation time: 72 h
measured parameter: normalised response (%)
One number for each entry, in %.

The cases that follow already have their normalised response on record.
Problem: Would you kindly share the measured normalised response for CC(C)n1nc(-c2ccc3oc(N)nc3c2)c2c(N)ncnc21 [INK128] (100 nM) ?
Result: 50.4

Problem: Fill blank: measured normalised response of the compound NC(=O)c1cccc2cn(-c3ccc([C@@H]4CCCNC4)cc3)nc12 [MK-4827] (1000 nM) is ____.
Result: 109

Problem: // normalised response lookup, key: CC(C)(C)Cn1c(N)nc2ccc(-c3[nH]c(C(C)(C)C)nc3-c3ccc(F)cc3)nc21 (1000 nM)
Result: 101

Go through the items and report each one's normalised response.
1. COc1cc2c(N3CCN(C(=O)Nc4ccc(OC(C)C)cc4)CC3)ncnc2cc1OCCCN1CCCCC1 [Tandutinib] (0.1 nM)
2. Cn1nnc2c(C(N)=O)ncn2c1=O [Temozolomide] (10 nM)
3. Cn1nnc2c(C(N)=O)ncn2c1=O [Temozolomide] (1 nM)
4. C[C@]12C=CC(=O)C=C1CC[C@@H]1[C@@H]2C(=O)C[C@@]2(C)[C@H]1CC[C@]2(O)C(=O)CO [Prednisone] (1000 nM)
5. CO[C@H](C(=O)[C@@H](O)[C@@H](C)O)[C@@H]1Cc2cc3cc(O[C@H]4C[C@@H](O[C@@H]5C[C@@H](O)[C@H](O)[C@@H](C)O5)[C@H](O)[C@@H](C)O4)c(C)c(O)c3c(O)c2C(=O)[C@H]1O[C@H]1C[C@@H](O[C@@H]2C[C@@H](O)[C@@H](O[C@@H]3C[C@](C)(O)[C@H](O)[C@@H](C)O3)[C@@H](C)O2)[C@H](O)[C@@H](C)O1 [Plicamycin] (10 nM)
6. CCN(CC)CCOc1ccc(C(=C(Cl)c2ccccc2)c2ccccc2)cc1 [Clomifene] (1000 nM)
7. CCCc1cc(C)[nH]c(=O)c1CNC(=O)c1cc(-c2ccnc(N3CCN(C)CC3)c2)cc2c1cnn2C(C)C [GSK343] (1000 nM)
8. CN1CCc2c(c3ccccc3n2Cc2ccc(C(=O)NO)cc2)C1 [Tubastatin A] (10 nM)

Result:
107
97
95.4
104
108
98.5
103
92.7

Problem: Look up normalised response for this compound: Cc1cc2c(F)c(Oc3ncnn4cc(OC[C@@H](C)O)c(C)c34)ccc2[nH]1 [Brivanib] (1 nM)
Result: 107

----------
Tested on: SK-BR-3
experiment: drug sensitivity score (DSS), CellTiter-Glo (DSS (AUC-based score)); higher = stronger drug effect (viability inhibition or cytotoxicity); extreme values may be limits of the assay
setup conditions: incubation time: 72 h
measured parameter: drug sensitivity score
Answers are plain numbers.

See these solved cases before continuing.
Problem: Name the recorded drug sensitivity score for CCCCCOC(=O)Nc1nc(=O)n([C@@H]2O[C@H](C)[C@@H](O)[C@H]2O)cc1F [Capecitabine] .
Result: 0

Problem: What does the data say about its drug sensitivity score? Entry: Cn1nnc2c(C(N)=O)ncn2c1=O [Temozolomide]
Result: 0

Problem: Given the entry Cc1c(N)nc([C@H](CC(N)=O)NC[C@H](N)C(N)=O)nc1C(=O)N[C@H](C(=O)N[C@H](C)[C@@H](O)[C@H](C)C(=O)N[C@H](C(=O)NCCc1nc(-c2nc(C(=O)NCCC[S+](C)C)cs2)cs1)[C@@H](C)O)[C@@H](OC1OC(CO)C(O)C(O)C1OC1OC(CO)C(O)C(OC(N)=O)C1O)c1cnc[nH]1 (stereo not given in full) [Bleomycin] , report its measured drug sensitivity score.
Result: 2.43

Problem: Given N[C@@H](Cc1ccc(N(CCCl)CCCl)cc1)C(=O)O [Melphalan] , state its recorded drug sensitivity score.
Result: 20.5

Others:
Problem: Which drug sensitivity score is listed for CC[C@H](CC#N)OC(=O)N[C@@H](C)c1cccc(NC(=O)Nc2ccc(-c3cnco3)c(OC)c2)c1 [AVN944] ?
Result: 9.68

----------
Tested on: HCC1937
experiment: normalised response (% of control), CellTox Green; higher = less cell death (100 = DMSO, 0 = benzethonium chloride kill control)
setup conditions: incubation time: 72 h
measured parameter: normalised response (%)
Numbers only, in %.

List the reported normalised response of each compound below.
1. CC[C@H](CC#N)OC(=O)N[C@@H](C)c1cccc(NC(=O)Nc2ccc(-c3cnco3)c(OC)c2)c1 [AVN944] (100 nM)
2. COc1cc(Nc2ncc(F)c(Nc3ccc4c(n3)N(COP(=O)(O)O)C(=O)C(C)(C)O4)n2)cc(OC)c1OC [Fostamatinib] (25 nM)
3. CCc1c(C(=O)C(N)=O)c2c(OCC(=O)O)cccc2n1Cc1ccccc1 [Varespladib] (1000 nM)
4. Nc1nc(Cl)nc2c1ncn2[C@@H]1O[C@H](CO)[C@@H](O)[C@@H]1F [Clofarabine] (10000 nM)
5. C[C@@H]1C[C@H]2[C@@H]3CCC4=CC(=O)C=C[C@]4(C)[C@@]3(F)[C@@H](O)C[C@]2(C)[C@@]1(O)C(=O)CO [Dexamethasone] (10000 nM)
6. Cn1nnc2c(C(N)=O)ncn2c1=O [Temozolomide] (100 nM)
7. NC(=O)NO [Hydroxyurea] (100000 nM)
8. N[C@@H](Cc1ccc(N(CCCl)CCCl)cc1)C(=O)O [Melphalan] (125 nM)

Result:
1. 83
2. 102
3. 105
4. 75.6
5. 61.1
6. 82.5
7. 111
8. 99.1

Report normalised response for each item below.
1. C[C@]12C=CC(=O)C=C1CC[C@@H]1[C@@H]2C(=O)C[C@@]2(C)[C@H]1CC[C@]2(O)C(=O)CO [Prednisone] (10000 nM)
2. CO[C@H]1C[C@@H]2CC[C@@H](C)[C@@](O)(O2)C(=O)C(=O)N2CCCC[C@H]2C(=O)O[C@H]([C@H](C)C[C@@H]2CC[C@@H](O)[C@H](OC)C2)CC(=O)[C@H](C)/C=C(\C)[C@@H](O)[C@@H](OC)C(=O)[C@H](C)C[C@H](C)/C=C/C=C/C=C/1C [Sirolimus] (100 nM)
3. CCN(CC)CCOc1ccc(C(=C(Cl)c2ccccc2)c2ccccc2)cc1 [Clomifene] (10000 nM)
4. CCCc1cc(C)[nH]c(=O)c1CNC(=O)c1cc(-c2ccnc(N3CCN(C)CC3)c2)cc2c1cnn2C(C)C [GSK343] (1000 nM)
5. Cn1cc(C[C@@H](N)C(=O)O)c2ccccc21 [1-methyl-D-tryptophan] (5000 nM)
6. CC(C)(C)Cn1c(N)nc2ccc(-c3[nH]c(C(C)(C)C)nc3-c3ccc(F)cc3)nc21 (10000 nM)
7. CC(C)NC[C@@H](C(=O)N1CCN(c2ncnc3c2[C@H](C)C[C@H]3O)CC1)c1ccc(Cl)cc1 [GDC-0068] (10000 nM)

Result:
[98.8, 49.5, -34.5, 121, 106, 92.4, 97.5]

// provenance: the supplement of paper PMC4862054
